- measured target: SlbHLH95 (GST fusion) (Solanum lycopersicum, UniProt A0A3Q7IJR5 1-380)
- assay summary: EMSA

{"binder": "SlCHS1 promoter E-box probe 1 (dsDNA) DNA 1: AAGCCATTTTCTCTTCTTCACTTGCTAAAATTTGTATAATAT DNA 2: ATATTATACAAATTTTAGCAAGTGAAGAAGAGAAAATGGCTT", "binding result": "no binding"}
{"binder": "SlCHS1 promoter E-box probe 3 (dsDNA) DNA 1: TTTATACAGTTCTCTGCCCAAGTGTCTTTCTCTTTCTTGTTT DNA 2: AAACAAGAAAGAGAAAGACACTTGGGCAGAGAACTGTATAAA", "binding result": "no binding"}
{"binder": "SlFLS promoter E-box probe 2 (dsDNA) DNA 1: ATTATACATACAAAATATCAATTGCAAGCTCTGATTTTATGT DNA 2: ACATAAAATCAGAGCTTGCAATTGATATTTTGTATGTATAAT", "binding result": "binds"}
{"binder": "SlCHS1 promoter E-box probe 2 (dsDNA) DNA 1: CTAAAAAAGTTGCTCAAACACGTGAAGACTAGCTACCGCCTA DNA 2: TAGGCGGTAGCTAGTCTTCACGTGTTTGAGCAACTTTTTTAG", "binding result": "no binding"}
{"binder": "SlFLS promoter E-box probe 3 (dsDNA) DNA 1: TAAAAAGCTGTTTATCAGCACTTGTTTGCCAAACACATCAAC DNA 2: GTTGATGTGTTTGGCAAACAAGTGCTGATAAACAGCTTTTTA", "binding result": "no binding"}
